Catalogue of compounds with associated pIC50
Biological target: Aldo-keto reductase family 1 member A1 (Homo sapiens)
Sequence (P14550 whole entry): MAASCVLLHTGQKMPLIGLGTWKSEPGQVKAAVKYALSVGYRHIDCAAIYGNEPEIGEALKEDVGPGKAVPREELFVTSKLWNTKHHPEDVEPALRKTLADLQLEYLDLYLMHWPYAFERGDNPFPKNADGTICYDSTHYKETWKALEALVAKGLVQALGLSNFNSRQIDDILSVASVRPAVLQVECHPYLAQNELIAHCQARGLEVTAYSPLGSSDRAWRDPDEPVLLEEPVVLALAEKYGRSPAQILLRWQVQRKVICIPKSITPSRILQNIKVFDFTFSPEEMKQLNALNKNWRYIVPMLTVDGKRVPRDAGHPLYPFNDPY
Assay: Inhibition of C-terminal 6His-tagged human recombinant SCoR2 AKR1A1 expressed in Escherichia coli BL21-CodonPlus competent cells using SNO-CoA as substrate incubated for 2 mins in presence of NADPH
Just so you know, pIC50 here is -log10 of the concentration in molar units; reply with that number alone.

>>> numeric_result("O=C(O)COc1ccc2c(c1)-c1ccc(F)cc1C21NC(=O)NC1=O (stereo not given)")
7.38
>>> numeric_result("O=C1NC(=O)C2(N1)c1cc(F)ccc1-c1c(-c3cn(C4CCCC4)nn3)cc(F)cc12 (stereo not given)")
7.18
>>> numeric_result("O=C1NC(=O)C2(N1)c1cc(Cl)ccc1-c1ccc(Cl)cc12")
6.90
>>> numeric_result("O=C1NC(=O)C2(N1)c1ccccc1-c1ccc(Cl)cc12 (stereo not given)")
7.28
>>> numeric_result("O=C(O)Cc1c(O)c(F)cc2c1-c1ccc(F)cc1C21NC(=O)NC1=O (stereo in doubt; 47-1)")
7.60
>>> numeric_result("O=C(O)COc1cc2c(cc1F)C1(NC(=O)NC1=O)c1cc(F)ccc1-2 (stereo in doubt; 48-1)")
7.20

Value (pIC50, Aldo-keto reductase family 1 member A1 (Homo sapiens)) for record O=C1NC(=O)C2(N1)c1ccccc1-c1c(F)cccc12 (stereo not given) = 7.09

Aldo-keto reductase family 1 member A1 (Homo sapiens) assay, compound O=C1NC(=O)C2(N1)c1cc(F)ccc1-c1cc(C3CC3)c(F)cc12 (stereo not given) , recorded pIC50 = 7.14

Field pIC50 (system: Aldo-keto reductase family 1 member A1 (Homo sapiens)) for entry O=C1NC(=O)C2(N1)c1ccc(OCCO)cc1-c1ccc(F)cc12 (stereo not given) = 7.13

Recorded pIC50 for O=C1NC(=O)C2(N1)c1ccccc1-c1ccc(C3CC3)cc12 (stereo not given) on Aldo-keto reductase family 1 member A1 (Homo sapiens) was 7.03

====

target: Aldo-keto reductase family 1 member B1 (Homo sapiens); test: Inhibition of C-terminal 6His-tagged human recombinant AKR1B1 expressed in Escherichia coli BL21-CodonPlus competent cells using DL-glyceraldehyde as substrate
assay_readout: IC50 (nM)
Only the number, expressed in nM, is required.

# compound O=C1NC(=O)C2(N1)c1cc(F)ccc1-c1ccc(F)cc12 ; its IC50 = 27

====

target: Aldo-keto reductase family 1 member B1 (Homo sapiens); experiment: Inhibition of C-terminal 6His-tagged human recombinant AKR1B1 expressed in Escherichia coli BL21-CodonPlus competent cells using methyl glyoxylate as substrate incubated for 2 mins in presence of NADPH
assay_readout: IC50 (nM)
State the answer as a number, implicitly in nM.

Reported IC50 of O=C1NC(=O)C2(N1)c1cc(Cl)ccc1-c1ccc(Cl)cc12 : 56

For record O=C(O)COc1ccc2c(c1)-c1ccc(F)cc1C21NC(=O)NC1=O (stereo not given) the listed IC50 is 53

Query O=C1NC(=O)C2(N1)c1cc(F)ccc1-c1ccc(F)cc12 yields IC50 of 46

Please fill in: IC50 reported for O=C1NC(=O)C2(N1)c1cc(F)ccc1-c1c(OCC(=O)N3CCC3)cc(F)cc12 (stereo not given) = 18

Recorded IC50 (molecule O=C1NC(=O)C2(N1)c1cc(F)ccc1-c1cc(OC3COC3)c(F)cc12 (stereo not given) ): 14

src = ChEMBL document CHEMBL5338743
